- method.description: Plasma levels of isoxicam and bioavailability parameters after a single oral dose to beagle dogs
- Type: in vivo
- assay.conditions: beagle, dog, in vivo, po, 100 mg, Cmax (µg/ml)

[
  {
    "compound": "Cc1cc(NC(=O)C2=C(O)c3ccccc3S(=O)(=O)N2C)no1 [micronized isoxicam, reference compound]",
    "Cmax": "15400 ng/mL"
  }
]

###

- method.description: Plasma levels of isoxicam and bioavailability parameters after a single oral dose to beagle dogs
- Format: in vivo
- assay.conditions: beagle, dog, in vivo, po, Half-life (hours)
- Method: The range for the individual animals was 51.4 to 63.0 µg/ml with three animals having a peak time of two hours and the final animal at eight hours. These plasma levels were considerably higher when compared to micronized isoxicam. […] Areas under the plasma concentrations versus time curve (AUC^0-∞) were calculated using the trapezoidal rule and extrapolated to infinity with the appropriate elimination rate constants.

[
  {
    "compound": "Cc1cc(NC(=O)C2=C(O)c3ccccc3S(=O)(=O)N2C)no1 [micronized isoxicam, reference compound]",
    "half-life (min)": 1960
  }
]
